B1: WEE1 (parent)
chain: FLGSSFSPVRCGGPGDASPRGCGA

Variants of: B1
Test: protein stability index of a GFP-peptide fusion (GPS, HEK-293T) (PSI 1-6); higher = more stable;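 note: lentivirally expressed fusions sorted by FACS into six bins by GFP to DsRed ratio, PSI derived from sequencing read proportions per bin multiplied by bin number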
Conditions: c terminus: a fixed tail appended
Quantity: protein stability index

Chain Sequence	Reading
FLGSSFSPVRCGLPGDASPRGCGA [G13L]	2.58
FLGSSFSPVRCGGPGDASPYGCGA [R20Y]	3.14
FLGSSFSPVRDGGPGDASPRGCGA [C11D]	3.3
FAGSSFSPVRCGGPGDASPRGCGA [L2A]	2.06
FLGSSFSPVRGGGPGDASPRGCGA [C11G]	2.34
FLGSSFSPVRCGGPGDASPRGGGA [C22G]	2.13
FLGSSFSPVRCRGPGDASPRGCGA [G12R]	2.1
FLGSSFSPVRNGGPGDASPRGCGA [C11N]	2.53
FLGSSFSPVRTGGPGDASPRGCGA [C11T]	2.27
FLGSQFSPVRCGGPGDASPRGCGA [S5Q]	1.58
FLGSSVSPVRCGGPGDASPRGCGA [F6V]	2.15
FLGSSFSPVRCGGPGDHSPRGCGA [A17H]	1.8
FLGSSFSPVRCGGPGDASPHGCGA [R20H]	1.33
FLGSSFSPVRCGGPGDASPRSCGA [G21S]	1.67
FLGSSFSPVRCGGFGDASPRGCGA [P14F]	3.56
FLGSSFSPVRCGGPGDWSPRGCGA [A17W]	2.29
FLGSSFSPVRCGGPGDASPRGCGC [A24C]	2.6
FLGSSFSPVRCGGPGDASPLGCGA [R20L]	2.37
FLGSSFSPVRCGNPGDASPRGCGA [G13N]	2.38
FLGSSFSPVRCGGKGDASPRGCGA [P14K]	2.81
FLGHSFSPVRCGGPGDASPRGCGA [S4H]	1.24
FLGSSFSPKRCGGPGDASPRGCGA [V9K]	1.93
FLNSSFSPVRCGGPGDASPRGCGA [G3N]	1.32
FLGSEFSPVRCGGPGDASPRGCGA [S5E]	1.52
FLGSSFSPVRCYGPGDASPRGCGA [G12Y]	2.65
FLGSSFVPVRCGGPGDASPRGCGA [S7V]	1.03
FLGSSFSPGRCGGPGDASPRGCGA [V9G]	2.25
FLGSSFSPVRCCGPGDASPRGCGA [G12C]	2.04
FLGSSFSPVRCGGPHDASPRGCGA [G15H]	1.76
FLGSSFSPVRCGGPGDASPRCCGA [G21C]	3.5
CLGSSFSPVRCGGPGDASPRGCGA [F1C]	2.82
FLGSSFHPVRCGGPGDASPRGCGA [S7H]	1.81
FLGSSFSPVRCWGPGDASPRGCGA [G12W]	1.9
FLGSSFKPVRCGGPGDASPRGCGA [S7K]	2.47
FLGSSFSPWRCGGPGDASPRGCGA [V9W]	2.19
FLGSSFNPVRCGGPGDASPRGCGA [S7N]	2.22
FLGSSFSPERCGGPGDASPRGCGA [V9E]	2.79
FLGSVFSPVRCGGPGDASPRGCGA [S5V]	1.39
FLGSSFSPVRCGGPGDASPRGCGN [A24N]	2.28
FLGSSFSPVRCGGQGDASPRGCGA [P14Q]	2.42
FLGSSFGPVRCGGPGDASPRGCGA [S7G]	2.73
FLGSSFSPVRCGGPGDASPRGHGA [C22H]	2.94
GLGSSFSPVRCGGPGDASPRGCGA [F1G]	3.25
FLTSSFSPVRCGGPGDASPRGCGA [G3T]	1.48
FLGSSFSPVRCGGPGDASPRGCLA [G23L]	1.09
FLGSSFSPVRCGGPGDASPRGCDA [G23D]	2.22
